Each item that follows carries a reported phosphorylation enrichment.
biological target: FGFR3 (UniProt P22607); assay: phosphorylation enrichment, bacterial display (enrichment ratio); higher = better substrate or ligand; peptides without Tyr show the background;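 further: 11-residue human phosphosite peptides and single-mutation variants displayed on the E. coli surface, counted by deep sequencing, each peptide's frequency after selection divided by its frequency in the unselected input library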;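 further: frequency after pTyr selection over input frequency; kinase dosed for 20-30% of maximal phosphorylation in three min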
Sequence (P22607 whole entry, looked up): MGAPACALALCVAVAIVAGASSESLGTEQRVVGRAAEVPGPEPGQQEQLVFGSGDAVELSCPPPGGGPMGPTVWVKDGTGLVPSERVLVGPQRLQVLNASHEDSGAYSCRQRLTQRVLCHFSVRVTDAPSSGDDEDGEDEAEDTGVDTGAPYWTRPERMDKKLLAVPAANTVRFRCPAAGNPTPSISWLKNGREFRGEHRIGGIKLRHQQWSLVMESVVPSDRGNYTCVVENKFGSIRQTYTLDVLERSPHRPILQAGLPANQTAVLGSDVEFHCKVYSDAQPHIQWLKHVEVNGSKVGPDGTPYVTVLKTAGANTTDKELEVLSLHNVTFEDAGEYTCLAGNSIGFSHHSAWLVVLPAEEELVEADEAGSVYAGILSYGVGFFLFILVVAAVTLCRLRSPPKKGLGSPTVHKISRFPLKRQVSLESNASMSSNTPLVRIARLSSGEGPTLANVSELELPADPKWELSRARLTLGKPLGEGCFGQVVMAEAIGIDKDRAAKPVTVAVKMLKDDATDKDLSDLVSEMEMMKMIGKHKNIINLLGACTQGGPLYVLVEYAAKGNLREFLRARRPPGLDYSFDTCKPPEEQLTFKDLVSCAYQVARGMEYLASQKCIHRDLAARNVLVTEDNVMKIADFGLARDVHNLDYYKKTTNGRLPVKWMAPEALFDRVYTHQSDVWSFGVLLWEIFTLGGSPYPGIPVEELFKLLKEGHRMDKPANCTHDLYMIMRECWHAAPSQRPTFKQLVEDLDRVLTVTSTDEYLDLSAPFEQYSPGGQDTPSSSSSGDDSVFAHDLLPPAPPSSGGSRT

residue_codes: LVRPPYSFSAL [FOXI1_Y126_YF]
test_target: FGFR3 (UniProt P22607)
phosphorylation enrichment: 0.434

residue_codes: GLCSYYETSKM [MAGED2_Y449_R446C]
test_target: FGFR3 (UniProt P22607)
phosphorylation enrichment: 4.99

residue_codes: HFGCVYRGTLL [MET_Y1093_H1094R]
test_target: FGFR3 (UniProt P22607)
phosphorylation enrichment: 1.06

residue_codes: GVRLYYRVRES [RB1_Y454_M457R]
test_target: FGFR3 (UniProt P22607)
phosphorylation enrichment: 0.781

residue_codes: LNECHYGALIG [BPGM_Y92_R90C]
test_target: FGFR3 (UniProt P22607)
phosphorylation enrichment: 0.886

residue_codes: SPYAVYRFFTF [RPGRIP1_Y826]
test_target: FGFR3 (UniProt P22607)
phosphorylation enrichment: 0.783

residue_codes: IDLEKYKLLPE [DHFR_Y157]
test_target: FGFR3 (UniProt P22607)
phosphorylation enrichment: 0.683

residue_codes: TENAGYFFQVS
test_target: FGFR3 (UniProt P22607)
phosphorylation enrichment: 0.774

residue_codes: PDGREYIYVDP [PDGFRA_Y572_H570R]
test_target: FGFR3 (UniProt P22607)
phosphorylation enrichment: 5.18

residue_codes: KGSEGYLAATF [NF1_Y2503_YF]
test_target: FGFR3 (UniProt P22607)
phosphorylation enrichment: 0.549

residue_codes: RRKRAYVEIEY [MAK16_Y282_Q277R]
test_target: FGFR3 (UniProt P22607)
phosphorylation enrichment: 1.18

residue_codes: ASRKFYAMKIL [AKT3_Y174_G171R_YF]
test_target: FGFR3 (UniProt P22607)
phosphorylation enrichment: 0.518

residue_codes: CTSIHYNYMCN [TP53_Y234_T231S]
test_target: FGFR3 (UniProt P22607)
phosphorylation enrichment: 0.591

residue_codes: KEIHAYRKLLE [LMNA_Y376_M371K]
test_target: FGFR3 (UniProt P22607)
phosphorylation enrichment: 0.487

residue_codes: HSFNSYTFPRL [PAK5_Y316_YF]
test_target: FGFR3 (UniProt P22607)
phosphorylation enrichment: 0.958

residue_codes: VFLARYGPAWR [CYP2D6_Y124]
test_target: FGFR3 (UniProt P22607)
phosphorylation enrichment: 0.501

residue_codes: GAVGNYSRGLA [MGMT_Y158_G160R]
test_target: FGFR3 (UniProt P22607)
phosphorylation enrichment: 0.465

residue_codes: GNYSGYDDAWD [POLR1C_Y36]
test_target: FGFR3 (UniProt P22607)
phosphorylation enrichment: 0.931

residue_codes: ISKKIYDTIHD [CTNNA3_Y614]
test_target: FGFR3 (UniProt P22607)
phosphorylation enrichment: 0.357

residue_codes: PFTRNYFVWAV [CYBA_Y87_R90W_YF]
test_target: FGFR3 (UniProt P22607)
phosphorylation enrichment: 10.9

residue_codes: FRQLQYCPSVE [CTNND2_Y508_YF]
test_target: FGFR3 (UniProt P22607)
phosphorylation enrichment: 0.861

residue_codes: RLRKFHLGKFL [KLB_Y906_Y906H_YF]
test_target: FGFR3 (UniProt P22607)
phosphorylation enrichment: 0.651

residue_codes: ELAINYQEQAS [SLC9A9_Y591]
test_target: FGFR3 (UniProt P22607)
phosphorylation enrichment: 0.674

residue_codes: SLDLSYYTTSS [EMD_Y181_P183T]
test_target: FGFR3 (UniProt P22607)
phosphorylation enrichment: 0.989

residue_codes: GRLFAYPDTHR [CAT_Y358]
test_target: FGFR3 (UniProt P22607)
phosphorylation enrichment: 0.538

residue_codes: AEMKRYAESSS [RAI14_Y869]
test_target: FGFR3 (UniProt P22607)
phosphorylation enrichment: 0.441

residue_codes: GIADDYDKKKL [EIF1_Y54]
test_target: FGFR3 (UniProt P22607)
phosphorylation enrichment: 0.565

residue_codes: SVVVPYEPSEV [TP53_Y220_P223S]
test_target: FGFR3 (UniProt P22607)
phosphorylation enrichment: 0.846

residue_codes: HCFAAYFQQGD [GPI_Y351_R347C]
test_target: FGFR3 (UniProt P22607)
phosphorylation enrichment: 1.28

residue_codes: TAPFNYSFIFK [RAB14_Y8_YF]
test_target: FGFR3 (UniProt P22607)
phosphorylation enrichment: 0.771

residue_codes: KWELRYMHSRV [ABCD1_Y281_G277W]
test_target: FGFR3 (UniProt P22607)
phosphorylation enrichment: 0.685

residue_codes: KNNDGNIDYAE [MCFD2_Y135_Y135N]
test_target: FGFR3 (UniProt P22607)
phosphorylation enrichment: 0.916

residue_codes: TYGVAYRAKDK [CDK11B_Y453_V452A]
test_target: FGFR3 (UniProt P22607)
phosphorylation enrichment: 0.537

residue_codes: HLEKKYVRRDS [CSF1R_Y708]
test_target: FGFR3 (UniProt P22607)
phosphorylation enrichment: 0.997

residue_codes: HQEPVYSVAFS [TBL1X_Y509]
test_target: FGFR3 (UniProt P22607)
phosphorylation enrichment: 3.89

residue_codes: SHRQDYLVGNK [GSTA1_Y147_G144R]
test_target: FGFR3 (UniProt P22607)
phosphorylation enrichment: 0.415

residue_codes: AALSAYAAQRP [PTPRN2_Y249]
test_target: FGFR3 (UniProt P22607)
phosphorylation enrichment: 0.433

residue_codes: LPKVSCVKAID [GLRA1_Y307_Y307C]
test_target: FGFR3 (UniProt P22607)
phosphorylation enrichment: 1.14

residue_codes: AKIDGYIISFR
test_target: FGFR3 (UniProt P22607)
phosphorylation enrichment: 0.654

residue_codes: ETAENYLGHTA [HSPA9_Y181]
test_target: FGFR3 (UniProt P22607)
phosphorylation enrichment: 0.523

residue_codes: WRGMPYGGRGD [TGM1_Y312_R307W]
test_target: FGFR3 (UniProt P22607)
phosphorylation enrichment: 0.486

residue_codes: SGFESYGSSSF [RPA2_Y9_YF]
test_target: FGFR3 (UniProt P22607)
phosphorylation enrichment: 0.539

residue_codes: GFWPRYVKVGS [NOG_Y172_R167G]
test_target: FGFR3 (UniProt P22607)
phosphorylation enrichment: 0.653

residue_codes: SVVVRYEPPEV [TP53_Y220_P219R]
test_target: FGFR3 (UniProt P22607)
phosphorylation enrichment: 0.517

residue_codes: KVNKIYYPDFI [LIG3_Y767]
test_target: FGFR3 (UniProt P22607)
phosphorylation enrichment: 3.46

residue_codes: DFTSRYLSASD [PKHD1_Y828_N830S]
test_target: FGFR3 (UniProt P22607)
phosphorylation enrichment: 0.605

residue_codes: RALCHYFKLNI [ETV6_Y401_R399C_YF]
test_target: FGFR3 (UniProt P22607)
phosphorylation enrichment: 0.975

residue_codes: TIMTNYNPNFC [ALK_Y1092_D1091N_YF]
test_target: FGFR3 (UniProt P22607)
phosphorylation enrichment: 0.694

residue_codes: AVEDQYYRVDC [FHL1_Y207_C209R]
test_target: FGFR3 (UniProt P22607)
phosphorylation enrichment: 6.95

residue_codes: HSGIYYKPESL [L2HGDH_Y103]
test_target: FGFR3 (UniProt P22607)
phosphorylation enrichment: 4.95

residue_codes: RVDRDYVLKST [HTATIP2_Y111_A116T]
test_target: FGFR3 (UniProt P22607)
phosphorylation enrichment: 0.529

residue_codes: SPYAVYLFFTF [RPGRIP1_Y826_R827L]
test_target: FGFR3 (UniProt P22607)
phosphorylation enrichment: 0.87

residue_codes: EEESCYILHSS [PATJ_Y783]
test_target: FGFR3 (UniProt P22607)
phosphorylation enrichment: 0.853

residue_codes: CENNRYGMGTS [PDHA1_Y227]
test_target: FGFR3 (UniProt P22607)
phosphorylation enrichment: 0.726

residue_codes: VQNIVYRTASI [CYP39A1_Y102]
test_target: FGFR3 (UniProt P22607)
phosphorylation enrichment: 0.442

residue_codes: KRFAFYRDSPR [FOXE3_Y108_E103K]
test_target: FGFR3 (UniProt P22607)
phosphorylation enrichment: 0.479

residue_codes: RFLERYIYNRE [HLA-DPB1_Y57]
test_target: FGFR3 (UniProt P22607)
phosphorylation enrichment: 0.784

residue_codes: DLQDENDFKCK [STAT1_Y170_Y170N]
test_target: FGFR3 (UniProt P22607)
phosphorylation enrichment: 0.853
